This listing pairs molecules with measured Activity.
- Tested on: DU-145
- method notes: Induction of apoptosis in human DU145 cells at 10 uM assessed as early apoptosis level after 72 hrs by AnnexinV conjugated 7- AAD staining by flow cytometry
- Assay type: functional
Your answer should be a plain number; it is taken to be in %.

Record excerpt, results attached:
[[record]]
mol = "Cc1ccccc1C1CCN(C2=CC(=O)c3cccc(O)c3C2=O)CC1"
system = "DU-145"
parameter_measured = "Activity"
assay_result = 14.31

[[record]]
mol = "O=C1C=C(N2CCC(c3ccccc3)CC2)C(=O)c2c(O)cccc21"
system = "DU-145"
parameter_measured = "Activity"
assay_result = 3.17

[[record]]
mol = "COc1ccccc1N1CCN(C2=CC(=O)c3cccc(O)c3C2=O)CC1"
system = "DU-145"
parameter_measured = "Activity"
assay_result = 10.13

[[record]]
mol = "O=C1C=C(N2CCN(c3ccccc3Cl)CC2)C(=O)c2ccccc21"
system = "DU-145"
parameter_measured = "Activity"
assay_result = 1.89

[[record]]
mol = "O=C1C=C(N2CCC(c3ccc(Cl)cc3)CC2)C(=O)c2c(O)cccc21"
system = "DU-145"
parameter_measured = "Activity"
assay_result = 8.88


Report Activity for O=C1C=C(N2CCN(c3ccccc3)CC2)C(=O)c2c(O)ccc(O)c21 tested on DU-145. 13.77

Please state recorded Activity (tested on DU-145) of O=C1C=C(N2CCN(c3ccccc3)CC2)C(=O)c2c(O)cccc21 37.6

Give Activity (DU-145) of the following molecule: Cc1ccccc1N1CCN(C2=CC(=O)c3cccc(O)c3C2=O)CC1 18.28

###

Measured IC50, listed per entry.
- Test system: MCF7
- method notes: Antiproliferative activity against human MCF7 cells after 72 hrs by MTT assay
- Assay type: functional, cell-based
- condition label: MCF7, 72 h
The reply should be a number in µM, with the unit left off.

Need IC50 of O=C1C=C(N2CCC(c3ccc(Cl)cc3)CC2)C(=O)c2c(O)cccc21 , thanks. 20.5

Looking for the measured IC50 of O=C1C=C(N2CCN(c3ccccc3Cl)CC2)C(=O)c2ccccc21 , can you help? 10.3

I am curious: what IC50 value has been reported for O=C1C=C(N2CCC(c3ccccc3)CC2)C(=O)c2c(O)cccc21 ? 8.8

# get_value(readout='IC50', item= O=C1C=C(N2CCN(c3ccccc3)CC2)C(=O)c2c(O)ccc(O)c21 ) 3

Consider the compound shown here: Cc1ccccc1C1CCN(C2=CC(=O)c3cccc(O)c3C2=O)CC1 What is its recorded IC50? 8.9

Would you mind telling me what IC50 value was observed for COc1ccccc1N1CCN(C2=CC(=O)c3cccc(O)c3C2=O)CC1 ? 5.6

# query: IC50 of entry Cc1ccccc1N1CCN(C2=CC(=O)c3cccc(O)c3C2=O)CC1 9.7

Give the measured IC50 of O=C1C=C(N2CCN(c3ccccc3)CC2)C(=O)c2c(O)cccc21 . 5.2

What IC50 value was documented for this compound, O=C1C=C(N2CCN(c3ccccc3Cl)CC2)C(=O)c2c(O)cccc21 ? 23.8

###

The following compounds are shown together with reported pIC50 values.
- method notes: Antiproliferative activity against human L78 cells after 72 hrs by MTT assay
- Type: functional, cell-based
- condition label: L78, 72 h
On this scale, pIC50 is minus log10 of a concentration expressed in M (mol/L).

Worked examples, 3 compounds total:
[[record]]
mol = "O=C1C=C(N2CCN(c3ccccc3)CC2)C(=O)c2c(O)cccc21"
parameter_measured = "pIC50"
assay_result = 5.44

[[record]]
mol = "Cc1ccccc1C1CCN(C2=CC(=O)c3cccc(O)c3C2=O)CC1"
parameter_measured = "pIC50"
assay_result = 5.36

[[record]]
mol = "O=C1C=C(N2CCN(c3ccccc3Cl)CC2)C(=O)c2ccccc21"
parameter_measured = "pIC50"
assay_result = 4.54


// pIC50 lookup, key: O=C1C=C(N2CCC(c3ccccc3)CC2)C(=O)c2c(O)cccc21 4.87

Endpoint output: pIC50 of O=C1C=C(N2CCN(c3ccccc3Cl)CC2)C(=O)c2c(O)cccc21 . Value? 5.28

Using the record for Cc1ccccc1N1CCN(C2=CC(=O)c3cccc(O)c3C2=O)CC1 , report its pIC50. 4.82
